# Target Or System: rFVIII (Homo sapiens, UniProt P00451)
# Sequence (P00451 20-2351): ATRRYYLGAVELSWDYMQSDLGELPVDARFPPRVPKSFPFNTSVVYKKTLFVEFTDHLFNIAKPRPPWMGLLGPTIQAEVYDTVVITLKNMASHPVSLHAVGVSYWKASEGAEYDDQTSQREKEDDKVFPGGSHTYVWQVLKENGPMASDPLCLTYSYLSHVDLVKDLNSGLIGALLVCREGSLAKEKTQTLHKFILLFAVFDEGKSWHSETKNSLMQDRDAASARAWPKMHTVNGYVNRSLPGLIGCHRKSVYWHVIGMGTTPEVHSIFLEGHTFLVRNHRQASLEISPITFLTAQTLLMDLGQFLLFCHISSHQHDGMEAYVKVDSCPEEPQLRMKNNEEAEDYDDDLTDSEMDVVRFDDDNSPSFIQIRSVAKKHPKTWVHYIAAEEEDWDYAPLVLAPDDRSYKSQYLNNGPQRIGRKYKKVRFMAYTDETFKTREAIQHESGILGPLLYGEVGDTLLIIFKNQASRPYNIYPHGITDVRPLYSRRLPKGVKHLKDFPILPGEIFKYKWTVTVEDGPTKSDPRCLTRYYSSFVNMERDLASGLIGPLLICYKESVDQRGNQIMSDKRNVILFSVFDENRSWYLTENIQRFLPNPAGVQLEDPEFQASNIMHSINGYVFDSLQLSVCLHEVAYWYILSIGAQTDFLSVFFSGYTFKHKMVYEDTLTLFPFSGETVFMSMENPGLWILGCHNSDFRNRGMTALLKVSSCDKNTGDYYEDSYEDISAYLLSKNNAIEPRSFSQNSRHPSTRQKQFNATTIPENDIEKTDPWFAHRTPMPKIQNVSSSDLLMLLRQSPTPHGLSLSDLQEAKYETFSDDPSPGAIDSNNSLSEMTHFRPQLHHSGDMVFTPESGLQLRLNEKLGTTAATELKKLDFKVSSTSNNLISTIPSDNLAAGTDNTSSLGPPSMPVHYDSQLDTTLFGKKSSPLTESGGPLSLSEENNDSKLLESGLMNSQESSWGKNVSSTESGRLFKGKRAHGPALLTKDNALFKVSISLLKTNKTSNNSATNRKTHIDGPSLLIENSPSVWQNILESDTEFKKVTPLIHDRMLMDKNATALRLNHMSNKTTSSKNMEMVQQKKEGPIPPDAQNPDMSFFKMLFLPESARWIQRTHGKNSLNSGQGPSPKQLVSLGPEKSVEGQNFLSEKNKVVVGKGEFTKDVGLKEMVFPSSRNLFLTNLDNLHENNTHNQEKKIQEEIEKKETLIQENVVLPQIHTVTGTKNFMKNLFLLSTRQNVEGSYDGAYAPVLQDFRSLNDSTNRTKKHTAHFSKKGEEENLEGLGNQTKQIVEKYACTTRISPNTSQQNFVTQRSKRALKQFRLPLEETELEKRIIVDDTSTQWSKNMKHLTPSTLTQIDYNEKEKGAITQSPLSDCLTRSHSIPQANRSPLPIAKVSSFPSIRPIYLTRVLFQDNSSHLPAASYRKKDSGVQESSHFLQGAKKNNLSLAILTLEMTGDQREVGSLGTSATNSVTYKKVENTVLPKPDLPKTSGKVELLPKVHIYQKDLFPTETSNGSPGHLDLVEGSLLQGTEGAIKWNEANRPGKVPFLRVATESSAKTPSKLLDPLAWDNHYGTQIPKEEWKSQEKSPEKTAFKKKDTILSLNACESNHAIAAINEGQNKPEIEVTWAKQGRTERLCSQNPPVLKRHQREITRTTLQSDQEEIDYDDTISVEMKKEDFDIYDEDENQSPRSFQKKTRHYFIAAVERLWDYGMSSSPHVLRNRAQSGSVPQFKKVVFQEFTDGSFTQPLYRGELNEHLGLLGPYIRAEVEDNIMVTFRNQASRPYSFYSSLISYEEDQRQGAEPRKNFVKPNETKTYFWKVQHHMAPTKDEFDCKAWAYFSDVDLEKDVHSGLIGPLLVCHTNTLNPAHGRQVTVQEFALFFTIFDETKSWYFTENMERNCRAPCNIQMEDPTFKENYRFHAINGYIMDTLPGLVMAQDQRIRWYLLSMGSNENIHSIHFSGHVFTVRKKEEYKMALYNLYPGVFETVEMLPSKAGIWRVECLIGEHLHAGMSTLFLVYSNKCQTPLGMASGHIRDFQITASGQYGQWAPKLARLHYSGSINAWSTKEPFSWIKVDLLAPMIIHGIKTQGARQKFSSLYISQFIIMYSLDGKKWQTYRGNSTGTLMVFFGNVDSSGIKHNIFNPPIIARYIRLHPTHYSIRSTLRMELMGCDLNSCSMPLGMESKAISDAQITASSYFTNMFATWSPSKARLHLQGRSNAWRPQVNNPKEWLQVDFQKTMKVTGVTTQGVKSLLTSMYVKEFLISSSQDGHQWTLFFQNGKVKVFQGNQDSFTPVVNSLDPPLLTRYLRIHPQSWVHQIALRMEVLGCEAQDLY
# Sequence (P00451 1668-2351 limits assumed): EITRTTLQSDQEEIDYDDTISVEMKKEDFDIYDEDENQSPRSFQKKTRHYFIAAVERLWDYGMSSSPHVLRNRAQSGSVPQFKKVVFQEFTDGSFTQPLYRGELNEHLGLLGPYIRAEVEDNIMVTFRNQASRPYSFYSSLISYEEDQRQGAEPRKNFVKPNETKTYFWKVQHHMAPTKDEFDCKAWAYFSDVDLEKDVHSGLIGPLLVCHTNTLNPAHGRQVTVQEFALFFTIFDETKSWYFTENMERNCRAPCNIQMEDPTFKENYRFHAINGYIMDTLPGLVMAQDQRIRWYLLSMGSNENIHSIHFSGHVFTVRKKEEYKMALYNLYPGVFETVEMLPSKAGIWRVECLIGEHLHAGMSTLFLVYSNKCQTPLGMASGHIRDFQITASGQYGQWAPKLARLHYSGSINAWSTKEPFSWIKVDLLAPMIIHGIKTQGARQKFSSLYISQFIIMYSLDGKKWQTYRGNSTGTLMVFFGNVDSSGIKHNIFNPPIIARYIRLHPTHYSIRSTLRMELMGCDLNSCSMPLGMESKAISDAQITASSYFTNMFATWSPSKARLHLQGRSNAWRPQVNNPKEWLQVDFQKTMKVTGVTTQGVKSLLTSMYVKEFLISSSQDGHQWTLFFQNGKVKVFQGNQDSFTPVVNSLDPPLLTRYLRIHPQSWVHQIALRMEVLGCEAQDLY
# Method Notes: column format binding assay, rFVIII mass per fraction by sandwich capture ELISA for the light chain
# Run Conditions: Table 9; 0.5M CaCl2 fraction
Endpoint Name: ELISA results % total (%)

| Substance | ELISA results % total / % |
| --- | --- |
| 2 (RNPPNN) [compound 2] | 92 |
| 5 (LNWKYG) [compound 5] | 97 |

a = 13 (KAQETW) [compound 13]
b = 15 (VYGVGG) [compound 15]
c = 14 (EPRVIG) [compound 14]
Arrange the 3 entries by ELISA results % total so the values rise. Give your ranking as a list of the labels in the requested order.
c, b, a
(c: 32%, b: 55%, a: 90%)

====

# Target Or System: rFVIII (Homo sapiens)
# Method Notes: confirmatory binding assay in filtration plate format using 14C-rFVIII
# Run Conditions: Table 4; 14C-rFVIII 30 nM
Endpoint Name: Total dpm (dpm)

| Substance | Units Text | Total dpm |
| --- | --- | --- |
| 10 (AFVRSL) [compound 10] | dpm | 3764 |
| 21 (HFQIFG) [compound 21] | dpm | 3484 |
| 11 (NAIFQW) [compound 11] | dpm | 2208 |
| 13 (KAQETW) [compound 13] | dpm | 4096 |

1 = 12 (QRLIQF) [compound 12]
2 = 15 (VYGVGG) [compound 15]
Of the two listed items, 1 and 2 , which carries the larger Total dpm figure? Provide the label of your selected option as the answer.
1

====

# Target Or System: rFVIII (Homo sapiens, UniProt P00451)
# Method Notes: column format binding assay, rFVIII mass per fraction by sandwich capture ELISA for the light chain
# Run Conditions: Table 5
Endpoint Name: Flow through % total (%)

| Substance | Target Or System | Flow through % total [%] |
| --- | --- | --- |
| 2 (RNPPNN) [compound 2] | rFVIII (Homo sapiens, UniProt P00451) | 7 |
| 5 (LNWKYG) [compound 5] | rFVIII (Homo sapiens, UniProt P00451) | 0 |
| 7 (IRFYSE) [compound 7] | rFVIII (Homo sapiens, UniProt P00451) | 4 |

I = 6 (HYWFYK) [compound 6]
II = 1 (KPNPLA) [compound 1]
III = 17 (FYRFWN) [compound 17]
# ascending order, key=Flow through % total Sort and list the labels as requested.
I, III, II

====

# Target Or System: rFVIII (Homo sapiens, UniProt P00451)
# Method Notes: column format binding assay, rFVIII mass per fraction by sandwich capture ELISA for the light chain
# Run Conditions: Table 6
Endpoint Name: 0.5M CaCl2 ng (ng)

| Substance | Numeric Readout |
| --- | --- |
| 10 (AFVRSL) [compound 10] | 11023 |
| 13 (KAQETW) [compound 13] | 8018 |
| 9 (FALPGR) [compound 9] | 7154 |
| 19 (FHFGLQ) [compound 19] | 1075 |
| 11 (NAIFQW) [compound 11] | 7481 |
| 20 (WHHHRG) [compound 20] | 36 |
| 15 (VYGVGG) [compound 15] | 4611 |
| 14 (EPRVIG) [compound 14] | 2850 |

1 = 12 (QRLIQF) [compound 12]
2 = 21 (HFQIFG) [compound 21]
3 = 22 (FVFLVR) [compound 22]
Ascending sort, 0.5M CaCl2 ng. Returns: the labels listed in the requested order.
3, 2, 1

====

# Target Or System: rFVIII (Homo sapiens, UniProt P00451)
# Method Notes: column format binding assay, rFVIII mass per fraction by sandwich capture ELISA for the light chain
# Run Conditions: Table 6
Endpoint Name: 2% acetic acid % total (%)

Consider the worked cases shown below.
| Substance | Target Or System | Numeric Readout |
| --- | --- | --- |
| 21 (HFQIFG) [compound 21] | rFVIII (Homo sapiens, UniProt P00451) | 60 |
| 22 (FVFLVR) [compound 22] | rFVIII (Homo sapiens, UniProt P00451) | 100 |
| 19 (FHFGLQ) [compound 19] | rFVIII (Homo sapiens, UniProt P00451) | 60 |
| 12 (QRLIQF) [compound 12] | rFVIII (Homo sapiens, UniProt P00451) | 2 |
| 13 (KAQETW) [compound 13] | rFVIII (Homo sapiens, UniProt P00451) | 1 |
| 9 (FALPGR) [compound 9] | rFVIII (Homo sapiens, UniProt P00451) | 2 |
| 14 (EPRVIG) [compound 14] | rFVIII (Homo sapiens, UniProt P00451) | 1 |
| 11 (NAIFQW) [compound 11] | rFVIII (Homo sapiens, UniProt P00451) | 11 |

A = 10 (AFVRSL) [compound 10]
B = 20 (WHHHRG) [compound 20]
Lab note: record which item had the higher 2% acetic acid % total, A or B . API: response body contains the label of the selected item.
B
(B: 95%, A: 1%)

====

# Target Or System: rFVIII (Homo sapiens)
# Method Notes: column format binding assay, rFVIII mass per fraction by sandwich capture ELISA for the light chain
# Run Conditions: Table 5
Endpoint Name: 2% acetic acid % total (%)

1 = 4 (FRPHWA) [compound 4]
2 = 5 (LNWKYG) [compound 5]
In terms of reported 2% acetic acid % total, does 1 or 2 have the smaller number? Please reply using the label of the selected record.
2
(2: 2%, 1: 3%)

P = 7 (IRFYSE) [compound 7]
Q = 16 (WRRHRY) [compound 16]
Look at P and Q . Which one has the lower recorded 2% acetic acid % total number? Reply briefly: the label of your chosen item.
P

P = 1 (KPNPLA) [compound 1]
Q = 2 (RNPPNN) [compound 2]
Parameter check: reported 2% acetic acid % total is higher for which label, P or Q ? Respond with the label that goes with your answer.
P
(P: 1%, Q: 0%)

I = 18 (WLWSHN) [compound 18]
II = 6 (HYWFYK) [compound 6]
III = 17 (FYRFWN) [compound 17]
Order the 3 substances from highest to lowest 2% acetic acid % total. The reply should contain the labels ordered as requested.
III, I, II

====

# Target Or System: rFVIII (Homo sapiens, UniProt P00451)
# Method Notes: confirmatory binding assay in filtration plate format using 14C-rFVIII
# Run Conditions: Table 3; 14C-rFVIII 20 nM in PPF, 5 mg beads
Endpoint Name: 2% acetic acid dpm (dpm)

Known results for substances:
| Substance | 2% acetic acid dpm [dpm] |
| --- | --- |
| 6 (HYWFYK) [compound 6] | 458 |
| 4 (FRPHWA) [compound 4] | 631 |

a = 3 (YVQGLW) [compound 3]
b = 16 (WRRHRY) [compound 16]
Parameter metric = 2% acetic acid dpm. Return the lower-valued option from a and b . // respond with label for picked entry
a

====

# Target Or System: rFVIII (Homo sapiens)
# Method Notes: rFVIII activity recovery from peptide columns by chromogenic substrate assay (COATEST)
# Assay type: biochemical
# Run Conditions: Table 8
# Protocol: Immunoassay on rFVIII using a sandwich capture ELISA for the light chain and activity assay using a chromogenic substrate (COATEST Factor VIII kit from diaPharma, Franklin, Ohio) were performed on a BIOMEK® automated liquid handling system from Beckman Instruments (Brea, Calif.). […] Tables 7 and 8 list the sequences for which activity recovery was determined by a chromogenic substrate assay (COASTEST kit, diaPharma, Franklin, Ohio). […]
Endpoint Name: 2% acetic acid % total (%)

As a guide, the following entries are already answered.
| Substance | Endpoint Name | Units Text | Numeric Readout |
| --- | --- | --- | --- |
| 12 (QRLIQF) [compound 12] | 2% acetic acid % total | % | 0 |
| 11 (NAIFQW) [compound 11] | 2% acetic acid % total | % | 0 |
| 15 (VYGVGG) [compound 15] | 2% acetic acid % total | % | 0 |
| 13 (KAQETW) [compound 13] | 2% acetic acid % total | % | 0 |

I = 9 (FALPGR) [compound 9]
II = 19 (FHFGLQ) [compound 19]
III = 20 (WHHHRG) [compound 20]
IV = 22 (FVFLVR) [compound 22]
V = 21 (HFQIFG) [compound 21]
With regard to 2% acetic acid % total, arrange the entries in ascending order, please. Dear reader, please state the labels in the requested order.
I, II, V, III, IV
(I: 0%, II: 7%, V: 19%, III: 45%, IV: 100%)

====

# Target Or System: rFVIII (Homo sapiens, UniProt P00451)
# Method Notes: rFVIII activity recovery from peptide columns by chromogenic substrate assay (COATEST)
# Format: biochemical
# Run Conditions: Table 7
Endpoint Name: Flow through % total (%)

| Substance | Endpoint Name | Numeric Readout |
| --- | --- | --- |
| 6 (HYWFYK) [compound 6] | Flow through % total | 0 |

P = 2 (RNPPNN) [compound 2]
Q = 7 (IRFYSE) [compound 7]
Between these two entries, P and Q , state which has the higher Flow through % total. Respond using the label that marks the chosen record.
P
